# test system: Serine/threonine-protein kinase N1 (Homo sapiens, UniProt Q16512)
# Sequence (Q16512 whole entry): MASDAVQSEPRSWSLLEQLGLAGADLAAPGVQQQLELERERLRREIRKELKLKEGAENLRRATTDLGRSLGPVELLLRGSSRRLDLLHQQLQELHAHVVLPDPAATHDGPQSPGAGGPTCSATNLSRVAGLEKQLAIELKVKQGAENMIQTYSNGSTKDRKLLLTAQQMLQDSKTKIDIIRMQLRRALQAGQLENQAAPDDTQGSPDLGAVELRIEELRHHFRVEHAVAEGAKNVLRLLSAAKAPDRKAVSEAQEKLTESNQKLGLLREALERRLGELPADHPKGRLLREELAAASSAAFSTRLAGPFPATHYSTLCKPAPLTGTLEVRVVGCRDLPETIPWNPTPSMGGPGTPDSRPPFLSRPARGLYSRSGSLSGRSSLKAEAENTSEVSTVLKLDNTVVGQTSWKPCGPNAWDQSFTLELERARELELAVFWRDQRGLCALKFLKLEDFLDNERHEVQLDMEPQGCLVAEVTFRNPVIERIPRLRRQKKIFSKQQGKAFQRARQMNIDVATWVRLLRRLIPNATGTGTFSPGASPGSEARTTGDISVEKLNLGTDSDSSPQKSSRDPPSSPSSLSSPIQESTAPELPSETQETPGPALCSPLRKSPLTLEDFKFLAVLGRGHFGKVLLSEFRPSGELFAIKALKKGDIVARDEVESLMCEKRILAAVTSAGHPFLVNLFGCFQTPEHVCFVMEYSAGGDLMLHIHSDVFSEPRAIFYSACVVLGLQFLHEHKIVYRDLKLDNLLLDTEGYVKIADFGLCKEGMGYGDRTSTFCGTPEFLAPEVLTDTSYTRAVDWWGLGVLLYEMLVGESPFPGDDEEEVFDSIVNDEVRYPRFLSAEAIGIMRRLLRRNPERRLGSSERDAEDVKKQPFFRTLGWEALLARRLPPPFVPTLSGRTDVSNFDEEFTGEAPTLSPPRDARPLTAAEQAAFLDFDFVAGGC
# assay procedure: Inhibition of full-length recombinant human GST-tagged PKN1 expressed in baculovirus expression system by Z'-LYTE assay
Below, each entry is listed with its recorded IC50.
Reply with just the number (in µM).

O=C(NCC(F)(F)F)c1cc(-c2cnn3cc(-c4ccc(OCCN5CCCCC5)cc4)cnc23)cs1; 3.9
Cn1cc(-c2cnc3c(-c4csc(C(=O)N[C@@H]5CCCC[C@@H]5N)c4)cnn3c2)cn1 (racemic); 0.25
Cc1sc(C(=O)N[C@@H]2[C@H](N)CCCC2(F)F)cc1-c1cnn2cc(Cl)cnc12; 17

Read the next record carefully.
For the compound Cn1cc(-c2cnc3c(-c4csc(C(=O)NCC(F)(F)F)c4)cnn3c2)cn1 , the measured IC50 on Serine/threonine-protein kinase N1 (Homo sapiens, UniProt Q16512) was 18

---

# test system: Vascular endothelial growth factor receptor 2 (Homo sapiens, UniProt P35968)
# Sequence (P35968 whole entry): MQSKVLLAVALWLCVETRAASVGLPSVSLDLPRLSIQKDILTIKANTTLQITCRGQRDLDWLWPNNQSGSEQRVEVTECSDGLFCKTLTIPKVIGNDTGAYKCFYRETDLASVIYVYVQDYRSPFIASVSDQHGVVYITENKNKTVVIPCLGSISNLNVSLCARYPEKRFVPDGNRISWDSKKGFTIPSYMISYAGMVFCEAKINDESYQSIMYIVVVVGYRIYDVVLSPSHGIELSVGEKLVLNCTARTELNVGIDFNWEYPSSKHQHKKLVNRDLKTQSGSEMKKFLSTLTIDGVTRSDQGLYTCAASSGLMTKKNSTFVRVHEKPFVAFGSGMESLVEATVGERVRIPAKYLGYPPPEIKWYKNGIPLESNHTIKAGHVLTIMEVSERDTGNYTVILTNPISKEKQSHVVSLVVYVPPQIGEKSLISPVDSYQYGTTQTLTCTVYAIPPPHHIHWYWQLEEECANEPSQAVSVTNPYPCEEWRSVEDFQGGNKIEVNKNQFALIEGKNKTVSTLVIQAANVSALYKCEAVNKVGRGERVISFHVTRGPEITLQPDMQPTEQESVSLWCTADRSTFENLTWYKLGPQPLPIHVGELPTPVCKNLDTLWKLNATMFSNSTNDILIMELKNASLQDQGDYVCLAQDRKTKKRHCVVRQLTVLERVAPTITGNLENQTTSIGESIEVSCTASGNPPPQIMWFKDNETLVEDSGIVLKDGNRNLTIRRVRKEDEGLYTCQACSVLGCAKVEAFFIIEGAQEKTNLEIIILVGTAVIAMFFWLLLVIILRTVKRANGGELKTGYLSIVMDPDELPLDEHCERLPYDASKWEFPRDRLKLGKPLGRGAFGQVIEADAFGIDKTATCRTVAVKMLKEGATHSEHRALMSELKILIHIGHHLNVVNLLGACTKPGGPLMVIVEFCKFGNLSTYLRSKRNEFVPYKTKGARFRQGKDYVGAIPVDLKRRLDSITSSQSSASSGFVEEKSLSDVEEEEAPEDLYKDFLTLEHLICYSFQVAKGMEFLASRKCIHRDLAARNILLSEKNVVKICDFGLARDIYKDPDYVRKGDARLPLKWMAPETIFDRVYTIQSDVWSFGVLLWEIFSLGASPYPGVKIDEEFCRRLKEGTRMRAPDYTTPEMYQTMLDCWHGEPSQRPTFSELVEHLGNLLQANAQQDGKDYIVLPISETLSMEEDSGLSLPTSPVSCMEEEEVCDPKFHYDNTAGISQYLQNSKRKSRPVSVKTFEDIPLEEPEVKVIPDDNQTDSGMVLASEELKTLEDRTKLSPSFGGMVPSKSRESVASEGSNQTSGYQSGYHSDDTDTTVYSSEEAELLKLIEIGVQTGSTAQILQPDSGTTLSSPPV
# assay procedure: Inhibition of recombinant human His-tagged cytoplasmic KDR expressed in baculovirus expression system by Z'-LYTE assay
# maps each entry to its IC50
Express your answer in nM, writing the number without its unit.

Cn1cc(-c2cnc3c(-c4csc(C(=O)NCC(F)(F)F)c4)cnn3c2)cn1; 15

The molecule identified as Cc1sc(C(=O)N[C@@H]2[C@H](N)CCCC2(F)F)cc1-c1cnn2cc(Cl)cnc12 registered its IC50 at 11000

molecule Cn1cc(-c2cnc3c(-c4csc(C(=O)N[C@@H]5CCCC[C@@H]5N)c4)cnn3c2)cn1 (racemic) , IC50 observed: 3.5

---

# test system: Casein kinase II subunit alpha (Homo sapiens)
# Sequence (P68400 whole entry): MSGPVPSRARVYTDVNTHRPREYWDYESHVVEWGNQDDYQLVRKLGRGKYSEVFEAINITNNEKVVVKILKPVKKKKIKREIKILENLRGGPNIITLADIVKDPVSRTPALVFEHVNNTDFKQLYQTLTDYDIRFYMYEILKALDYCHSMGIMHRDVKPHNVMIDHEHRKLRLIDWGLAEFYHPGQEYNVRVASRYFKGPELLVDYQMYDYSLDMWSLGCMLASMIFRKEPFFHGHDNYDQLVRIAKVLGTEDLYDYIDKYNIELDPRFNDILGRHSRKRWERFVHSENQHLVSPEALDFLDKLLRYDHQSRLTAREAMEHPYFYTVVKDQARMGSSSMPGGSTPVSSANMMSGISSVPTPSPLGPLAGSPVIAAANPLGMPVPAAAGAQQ
# assay procedure: Inhibition of full-length recombinant human His-tagged CSNK2A1 expressed in baculovirus expression system by Z'-LYTE assay
pIC50: −log10 of the molar value.
Entries annotated with measured pIC50

Some molecules with known pIC50 results, for comparison:
Cn1cc(-c2cnc3c(-c4csc(C(=O)N[C@@H]5CCCC[C@@H]5N)c4)cnn3c2)cn1 (racemic); < 5.00
Cc1sc(C(=O)N[C@@H]2[C@H](N)CCCC2(F)F)cc1-c1cnn2cc(Cl)cnc12; < 4.00
O=C(NCC(F)(F)F)c1cc(-c2cnn3cc(-c4ccc(OCCN5CCCCC5)cc4)cnc23)cs1; 5.08

Form: molecule = Cn1cc(-c2cnc3c(-c4csc(C(=O)NCC(F)(F)F)c4)cnn3c2)cn1 ; pIC50 = < 4.00

---

# test system: Epidermal growth factor receptor (Homo sapiens, UniProt P00533)
# Sequence (P00533 whole entry): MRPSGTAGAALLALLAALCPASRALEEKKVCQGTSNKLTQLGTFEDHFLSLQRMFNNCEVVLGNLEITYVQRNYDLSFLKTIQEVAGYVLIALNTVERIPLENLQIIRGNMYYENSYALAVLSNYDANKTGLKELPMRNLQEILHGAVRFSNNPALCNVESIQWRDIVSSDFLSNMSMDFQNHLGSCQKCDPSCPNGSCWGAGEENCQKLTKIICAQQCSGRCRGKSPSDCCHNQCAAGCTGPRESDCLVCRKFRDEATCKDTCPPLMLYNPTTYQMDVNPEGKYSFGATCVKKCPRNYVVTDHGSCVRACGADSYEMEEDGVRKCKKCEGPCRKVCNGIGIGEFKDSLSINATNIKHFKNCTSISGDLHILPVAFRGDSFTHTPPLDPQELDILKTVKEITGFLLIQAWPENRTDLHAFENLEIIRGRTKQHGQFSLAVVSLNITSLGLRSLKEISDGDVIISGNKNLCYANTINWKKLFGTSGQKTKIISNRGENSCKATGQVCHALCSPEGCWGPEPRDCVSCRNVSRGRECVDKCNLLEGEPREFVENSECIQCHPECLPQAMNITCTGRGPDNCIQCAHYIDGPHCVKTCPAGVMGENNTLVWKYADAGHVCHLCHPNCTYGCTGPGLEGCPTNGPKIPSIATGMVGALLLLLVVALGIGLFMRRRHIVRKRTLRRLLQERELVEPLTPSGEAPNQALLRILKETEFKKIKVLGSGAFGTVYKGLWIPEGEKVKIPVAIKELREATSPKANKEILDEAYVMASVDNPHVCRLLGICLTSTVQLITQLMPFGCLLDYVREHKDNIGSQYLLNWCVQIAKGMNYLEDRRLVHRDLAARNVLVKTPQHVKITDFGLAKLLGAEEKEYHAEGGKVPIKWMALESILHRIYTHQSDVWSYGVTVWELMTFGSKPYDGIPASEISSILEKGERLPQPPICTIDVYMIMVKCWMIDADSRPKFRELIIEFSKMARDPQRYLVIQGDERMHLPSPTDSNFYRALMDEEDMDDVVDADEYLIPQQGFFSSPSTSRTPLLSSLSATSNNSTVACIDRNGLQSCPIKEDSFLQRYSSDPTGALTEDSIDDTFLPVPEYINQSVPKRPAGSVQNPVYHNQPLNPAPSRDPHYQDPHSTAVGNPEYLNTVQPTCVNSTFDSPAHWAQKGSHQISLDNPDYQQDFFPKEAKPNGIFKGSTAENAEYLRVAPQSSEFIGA
# assay procedure: Inhibition of recombinant human His-tagged EGFR expressed in mammalian expression system by Z'-LYTE assay
measured quantity: pIC50
pIC50 (log units): -log10 of the concentration in mol/L.

Examples from the recorded data:
O=C(NCC(F)(F)F)c1cc(-c2cnn3cc(-c4ccc(OCCN5CCCCC5)cc4)cnc23)cs1; 5.96
Cn1cc(-c2cnc3c(-c4csc(C(=O)NCC(F)(F)F)c4)cnn3c2)cn1; 4.55

// field: pIC50; key: Cn1cc(-c2cnc3c(-c4csc(C(=O)N[C@@H]5CCCC[C@@H]5N)c4)cnn3c2)cn1 (racemic) ; value = 6.47

---

Readings of Vd for the listed compounds
# assay procedure: Volume of distribution in Sprague-Dawley rat at 1 mL/kg, iv administered through catheter or 5 mL/kg administered through gastric gavage measured after 24 hrs by LC-MS/MS analysis
# Assay type: ADME, organism-based
# test settings: in vivo
Note: unit L/kg is implicit; provide only the numeric part.

Consider Cn1cc(-c2cnc3c(-c4csc(C(=O)NCC(F)(F)F)c4)cnn3c2)cn1 . Its measured Vd is 0.77

Reported Vd ( Cn1cc(-c2cnc3c(-c4csc(C(=O)N[C@@H]5CCCC[C@@H]5N)c4)cnn3c2)cn1 (racemic) ) = 29

Given item O=C(NCC(F)(F)F)c1cc(-c2cnn3cc(-c4ccc(OCCN5CCCCC5)cc4)cnc23)cs1 , the value recorded as its Vd is 14.2

Entry Cc1sc(C(=O)N[C@@H]2[C@H](N)CCCC2(F)F)cc1-c1cnn2cc(Cl)cnc12 , Vd reported as 1.3

Recorded values, source ChEMBL document CHEMBL4477252.
